Reference source: patent US20220119517A1

- SYSTEM_UNDER_TEST: T1, human Claudin18.1 (CLDN18.1), full length, on cells (human, UniProt P56856 1-261)
- T1 construct: HEK293-CLDN18.1 cells carry a fusion with green fluorescent protein (ZsGreen); CHO-K1-CLDN18.1 cells carry pcDNA3.1-CLDN18.1; The cell line is named under assay; also called CLDN18.1-FL; HEK293-CLDN18.1 cells
- ASSAY_INFO: cellular ELISA
QUANTITY_NAME: binding result

INSERT INTO measurements (binder, quantity_name, test_result) VALUES
  ('307CHI (antibody, V domains shown, chimeric with the constant region of human IgG1) VH: EVKLVESGGGLVQPGGSLKLSCAASGFGFSDYGMAWVRQAPRKGPEWVAFISNSAYSIYYADTVTGRFTISRENAKNTLYLEMSSLRSEDTAMYYCARLGYGNSFAYWGQGTLVTVSA VL: DIVMTQSPSSLTVTAGEKVTMSCKSSQSLLNSGNQKNYLTWYQQKPGQPPKLLIYWASTRESGVPDRFTGSGSGTDFTLTISSVQAEDLAVYYCQNNYYYPLTFGAGTKLELK', 'binding result', 'no binding'),
  ('319CHI (antibody, V domains shown, chimeric with the constant region of human IgG1) VH: EVKLVESGGGLVQPGGSLKLSCAASGFGFSDYGMAWVRQAPRKGPEWVAFISNSAYSIYYADTVTGRFTISRENAKNTLYLEMSSLRSEDTAMYYCARLGRGNSFAYWGQGTLVTVSA VL: DIVMTQSPSSLTVTAGEKVTMSCKSSQSLLNSGNQKNYLTWYQQKPGQPPKLLIYWASTRESGVPDRFTGSGSGTDFTLTISSVQAEDLAVYYCQNNYYYPLTFGAGTKLELK', 'binding result', 'no binding'),
  ('324CHI (antibody, human IgG1, V domains shown, chimeric with the constant region of human IgG1) VH: EVKLVESGGGLVQPGGSLKLSCAASGFTFSDYGMAWVRQAPRKGPEWVAFISNLAYSIYYADTVTGRFTISRENAKNTLYLEMSSLRSEDTAMYYCARLGYGNSFAYWGQGTLVTVSA VL: DIVMTQSPSSLTVTAGEKVTMSCKSSQSLLNSGNQKNYLTWYQQKPGQPPKLLIYWGSTRESGVPDRFTGSGSGTDFTLTISSVQAEDLAVYYCQNELFYPLTFGAGTKLELK', 'binding result', 'no binding'),
  ('301CHI (antibody, V domains shown, chimeric with the constant region of human IgG1) VH: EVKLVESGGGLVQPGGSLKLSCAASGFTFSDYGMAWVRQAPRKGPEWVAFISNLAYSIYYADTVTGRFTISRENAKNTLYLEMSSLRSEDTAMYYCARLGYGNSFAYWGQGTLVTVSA VL: DIVMTQSPSSLTVTAGEKVTMSCKSSQSLLNSGNQKNYLTWYQQKPGQPPKLLIYWASTRESGVPDRFTGSGSGTDFTLTISSVQAEDLAVYYCQNNYYYPLTFGAGTKLELK', 'binding result', 'no binding');
